- System: NCI-H522 lung
- experiment: NCI-60 one-dose screen, 48 h
- conditionDescription: 10 µM unless noted
- Protocol: Growth inhibition of the NCI-H522 human Non-Small Cell Lung tumor cell line is measured as a screen for anti-cancer activity. Cells are grown in 96 well plates and exposed to the test compound for 48 hours. Compounds are tested at a single concentration, which is 10^-5 M for most compounds. The reported endpoint is percent growth (GI% or GIPRCNT), where numbers from 0 - 100% represent growth inhibition, and numbers from -100% - 0 represent cell death. […]
About 83,000 compounds went through this panel and 20% of them were active in at least one assay; those are over-represented in the sample as a whole. Activity calls are given as the source filed them. The calls were made as follows: active = growth percent below 10; inactive = the rest.
// classify into true (1) for active, false (0) for inactive

Test call for this compound, please: C/C1=C\CCC2(C)OC2CC2CCC(C)(O)C(CC1)C2(C)C (stereo unspecified)
false (0)

One more compound: `CC(=O)OC[Si](C)(C)c1ccccc1`
false (0)

What about `COc1cccc(-c2nc3sccn3c2-c2ccnc(NCCNS(=O)(=O)c3ccccc3)n2)c1` ?
false (0)

Same question for `CN(C)C/C=C/C(=O)Nc1cc2c(Nc3cccc(Cl)c3F)ncnc2cc1OCCOC(F)F` please.
true (1)

Also CC1Cc2c(N(C)C)ncnc2N(C)c2ccc(O)cc21 (stereo unspecified) ?
false (0)

Next compound up: `O=Nc1c(-c2c(O)[nH]c3ccc([N+](=O)[O-])cc23)[nH]c2ccc(O)cc12`
true (1)

Try this compound next: `Clc1cccc(Cl)c1Cn1c(-c2cncs2)nc2ccccc21`
false (0)

Try `Nc1nn2cc(-c3ccc(Cl)s3)nc2c2ccccc12` next.
false (0)

Also, `N#Cc1ncc(-c2ccc(F)c(F)c2F)c(NC2CCCCCC2)n1` please.
false (0)

Now try `O=C(Nc1ccc(F)cc1)c1cc([N+](=O)[O-])ccc1O` .
false (0)

Next compound up: `COc1cc(NC(=O)CSc2nc3ccc(C)cc3c(=O)n2-c2ccccc2)cc(OC)c1OC`
false (0)

What about `O=C1CCCCN1CCCCC#Cc1ccccc1C#Cc1ccc([N+](=O)[O-])cc1` ?
false (0)

And for COc1cccc(C2CC(=O)Nc3c2c(C)nn3-c2nc3ccccc3[nH]2)c1OC (stereo unspecified) ?
false (0)

// repeat for `CNC(=O)Cc1nc(-c2cccc(NS(=O)(=O)c3c(F)cccc3F)c2F)c(-c2ccnc(Nc3ccccc3)n2)s1` and report
false (0)

Moving on to the next compound: `Nc1c(C(=O)Nc2ccccc2)sc2nc3c(cc12)CCC3`
false (0)

Also check `Cc1cc(Nc2nc(-c3ccc(F)cc3)nc3ccccc23)n[nH]1`
false (0)

Would you kindly repeat that for `c1ccc([P+](CCC[P+](c2ccccc2)(c2ccccc2)c2ccccc2)(c2ccccc2)c2ccccc2)cc1` ?
false (0)

// query: `c1cc(-c2ccc3c(c2)OCO3)n2nccc2n1`
false (0)

Another compound to check: `Cc1oc2nc[nH]c(=O)c2c1C(=O)/C=C/c1ccc(Cl)cc1Cl`
false (0)

Cool, now COC12CC(=O)C(C(C)=O)=C(O)C1(C)c1c(O)c(C)c(O)c(C(C)=O)c1O2 (stereo unspecified)
false (0)

// query: `CCN(CC)CCCNc1nc(C)cc(Nc2ccc3nc(C)cc(N)c3c2)n1`
false (0)

What do we get for `CCn1cc(C(=O)O)c(=O)c2cc(F)c(N3CCN(S(=O)(=O)c4cccc5ccccc45)CC3)cc21` ?
true (1)

Same read-out for `CC[C@]1(O)C[C@@H]2CN(Cc3c([nH]c4ccccc34)[C@@](C(=O)OC)(c3cc4c(cc3OC)N(C)[C@H]3[C@@](O)(C(=O)OC)[C@H](OC(C)=O)[C@]5(CC)[C@@H]6C[C@@H]6CN6CC[C@]43[C@@H]65)C2)C1` ?
true (1)

Try `Cc1cc(N/C=c2\sc3ncnn3c2=O)no1` next.
false (0)

Queued: `COc1ccc(OC)c(NC(=O)c2cc(S(=O)(=O)N3CCc4ccccc43)ccc2OC)c1`
false (0)

Repeat for the following compound: `CC(=O)Oc1cccc(OC(C)=O)c1OC(C)=O`
false (0)

What do we get for `CCN(CC)CCSc1c2ccc(Cl)cc2nc2ccc(OC)cc12` ?
true (1)

Then `Cc1oc2nc[nH]c(=O)c2c1C(=O)/C=C/c1ccc(Cl)cc1` ?
false (0)

Repeat for the following compound: `COc1cc(OC)cc(-c2n[nH]nc2-c2ccc3c(c2)OCO3)c1`
true (1)

Repeat with COc1cc(/C=C2\CCCC3=C2NC(C)=NC3c2cc(OC)c(OC)c(OC)c2)cc(OC)c1OC (stereo unspecified)
false (0)

Same thing, different compound: CCC(C)NCC(=O)O (stereo unspecified)
false (0)

What do you get for `COc1cc(OC)c(C(=O)/C=C/c2cccc(C#N)c2)c(OC)c1` ?
true (1)

Consider next the compound `O=P([O-])(O)OP(=O)([O-])O.[NH-][C@H]1CCCC[C@@H]1[NH-].[OH-].[OH-].[Pt+4]` in the same way.
false (0)

Entry to check: `CC(=O)Nc1nc(C(=O)N2N=C(C)/C(=C/c3ccc(Cl)cc3)C2=O)cs1`
false (0)

Follow-up item: `COc1cc(NC(=O)CCl)ccc(=O)c1`
false (0)

Another compound: `NS(=O)(=O)c1ccc(CN2C(=O)c3cccc4cccc(c34)C2=O)cc1`
false (0)

Param item: `C=CCOc1cccc(/C=C/C(=O)c2sc(Nc3cccnc3)nc2C)c1`
false (0)

And `C=C1C(=O)O[C@H]2[C@H]1CC/C(COC(=O)NCc1cc(OC)cc(OC)c1)=C\CC[C@@]1(C)O[C@@H]21` ?
true (1)

And the next one, `O=C(Nc1ccc(Br)c(Cl)c1)c1cc(F)ccc1O` ?
true (1)

Moving on to the next compound: `O=C(Nc1ccc(I)cc1)c1cc([N+](=O)[O-])ccc1O`
true (1)

Also need `CCN(C(=O)c1cc2ccccc2[nH]1)[C@H]1CCC[C@@H](NCc2ccc(OC)cc2)C1` , thanks.
false (0)
